Kindly state Activity for each of the entries shown.
Target: Cannabinoid receptor 1 (Homo sapiens, UniProt P21554)
Sequence (P21554 whole entry): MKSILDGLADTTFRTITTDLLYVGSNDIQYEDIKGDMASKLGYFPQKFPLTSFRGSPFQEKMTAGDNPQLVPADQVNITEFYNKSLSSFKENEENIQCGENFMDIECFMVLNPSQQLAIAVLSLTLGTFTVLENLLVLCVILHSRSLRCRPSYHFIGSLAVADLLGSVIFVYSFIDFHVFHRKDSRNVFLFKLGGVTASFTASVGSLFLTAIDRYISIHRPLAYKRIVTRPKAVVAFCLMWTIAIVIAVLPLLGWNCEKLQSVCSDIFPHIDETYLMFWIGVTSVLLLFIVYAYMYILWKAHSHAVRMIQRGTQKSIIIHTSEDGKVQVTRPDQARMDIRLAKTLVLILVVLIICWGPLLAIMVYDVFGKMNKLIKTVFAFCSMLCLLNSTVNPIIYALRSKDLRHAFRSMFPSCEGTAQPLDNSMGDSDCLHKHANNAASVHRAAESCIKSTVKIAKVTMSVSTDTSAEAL
Assay: Antagonist activity at CP-55940-activated CB1 receptor (unknown origin) at 10 uM by beta-arrestin assay relative to control
Format: functional
Set-up: scale not given: the % may be the effect or the level left
Details: filed as antagonist
Value expressed in %; do not type the unit.

Provide the documented Activity with Cannabinoid receptor 1 (Homo sapiens, UniProt P21554) as the system for O=C1NC(Nc2ccccc2)=N/C1=C\c1ccc2c(c1)CCO2 96.4

Tell me reported Activity for O=C1NC(Nc2ccccc2)=N/C1=C\c1ccc(F)cc1 , tested with Cannabinoid receptor 1 (Homo sapiens, UniProt P21554). 78

Request: Activity, test system Cannabinoid receptor 1 (Homo sapiens, UniProt P21554), entry CCCCCCc1ccc(NC2=N/C(=C\c3ccc(O)c(OC)c3)C(=O)N2)cc1 48.1

Notebook entry, Cannabinoid receptor 1 (Homo sapiens, UniProt P21554) assay: Activity of O=C1NC(Nc2ccccc2)=N/C1=C\c1ccc2c(c1)CCCO2 = ? 94

Test system Cannabinoid receptor 1 (Homo sapiens, UniProt P21554); read-out Activity; what value for COc1cc(/C=C2\N=C(Nc3ccc(N4CCCCC4)cc3)NC2=O)ccc1O ? 84.1

Record CCCCOc1ccc(/C=C2\N=C(Nc3ccccc3)NC2=O)cc1OC : what is its Activity with Cannabinoid receptor 1 (Homo sapiens, UniProt P21554)? 54.3

Test system Cannabinoid receptor 1 (Homo sapiens, UniProt P21554); read-out Activity; what value for CCCCCCc1ccc(NC2=N/C(=C\c3ccc4c(c3)OCO4)C(=O)N2)cc1 ? 75

Form field: Activity recorded for O=C1NC(Nc2ccccc2)=N/C1=C\c1cccc(F)c1 with Cannabinoid receptor 1 (Homo sapiens, UniProt P21554) (enter value) 79.5

GET /values?readout=Activity&system=Cannabinoid receptor 1 (Homo sapiens, UniProt P21554)&item= O=C1NC(Nc2ccc(Oc3ccccc3)cc2)=N/C1=C\c1ccc2c(c1)OCO2 73.5

So what Activity did COc1ccc(/C=C2\N=C(Nc3ccccc3)NC2=O)cc1 get with Cannabinoid receptor 1 (Homo sapiens, UniProt P21554)? 92.2

Cannabinoid receptor 1 (Homo sapiens, UniProt P21554) / Activity / O=C1NC(Nc2ccc(N3CCCCC3)cc2)=N/C1=C\c1ccc2c(c1)OCO2 : value? 81.7

Short answer please: Activity, Cannabinoid receptor 1 (Homo sapiens, UniProt P21554), entry O=C1NC(Nc2ccccc2)=N/C1=C\c1ccc2c(c1)OCCO2 96.3

Which Activity is reported with Cannabinoid receptor 1 (Homo sapiens, UniProt P21554) for this entry: O=C1NC(Nc2ccccc2)=N/C1=C\c1ccc2c(c1)OCO2 ? 96.8

Return Activity measured with Cannabinoid receptor 1 (Homo sapiens, UniProt P21554) given this compound: O=C1NC(Nc2ccccc2)=N/C1=C\c1ccc2c(c1)OCCCO2 89.3

Checklist item: Activity tested on Cannabinoid receptor 1 (Homo sapiens, UniProt P21554), entry COc1ccc(NC2=N/C(=C\c3ccc4c(c3)OCO4)C(=O)N2)cc1 , value? 50.5

Give recorded Activity with Cannabinoid receptor 1 (Homo sapiens, UniProt P21554) for the following compound: Cc1ccc(NC2=N/C(=C\c3ccc4c(c3)OCO4)C(=O)N2)cc1 90.8

What Activity appears in the records for this compound with Cannabinoid receptor 1 (Homo sapiens, UniProt P21554)? COc1ccc(/C=C2\N=C(Nc3ccccc3)NC2=O)cc1O 46.8

Provide value of Activity for this record tested with Cannabinoid receptor 1 (Homo sapiens, UniProt P21554): O=C1NC(Nc2ccc(F)cc2)=N/C1=C\c1ccc2c(c1)OCO2 76.4

Give Activity (Cannabinoid receptor 1 (Homo sapiens, UniProt P21554)) of the following compound: Cc1ccc(NC2=N/C(=C\c3ccc4c(c3)OCO4)C(=O)N2)c(C)c1 65.6

Form field - read-out: Activity; system: Cannabinoid receptor 1 (Homo sapiens, UniProt P21554); submitted item: COc1cccc(/C=C2\N=C(Nc3ccccc3)NC2=O)c1 71.9

Requested read-out Activity, target or system Cannabinoid receptor 1 (Homo sapiens, UniProt P21554), entry O=C1NC(Nc2cccc(F)c2)=N/C1=C\c1ccc2c(c1)OCO2 83.4

Reported Activity for Cannabinoid receptor 1 (Homo sapiens, UniProt P21554), given Cc1ccc(NC2=N/C(=C\c3ccc4c(c3)OCO4)C(=O)N2)cc1C ? 51.7

Missing value: Activity, Cannabinoid receptor 1 (Homo sapiens, UniProt P21554), entry O=C1NC(Nc2ccccc2)=N/C1=C\c1ccccc1 . Fill in? 44.6

---

Target: Dual specificity tyrosine-phosphorylation-regulated kinase 1B (Homo sapiens, UniProt Q9Y463)
Sequence (Q9Y463 whole entry): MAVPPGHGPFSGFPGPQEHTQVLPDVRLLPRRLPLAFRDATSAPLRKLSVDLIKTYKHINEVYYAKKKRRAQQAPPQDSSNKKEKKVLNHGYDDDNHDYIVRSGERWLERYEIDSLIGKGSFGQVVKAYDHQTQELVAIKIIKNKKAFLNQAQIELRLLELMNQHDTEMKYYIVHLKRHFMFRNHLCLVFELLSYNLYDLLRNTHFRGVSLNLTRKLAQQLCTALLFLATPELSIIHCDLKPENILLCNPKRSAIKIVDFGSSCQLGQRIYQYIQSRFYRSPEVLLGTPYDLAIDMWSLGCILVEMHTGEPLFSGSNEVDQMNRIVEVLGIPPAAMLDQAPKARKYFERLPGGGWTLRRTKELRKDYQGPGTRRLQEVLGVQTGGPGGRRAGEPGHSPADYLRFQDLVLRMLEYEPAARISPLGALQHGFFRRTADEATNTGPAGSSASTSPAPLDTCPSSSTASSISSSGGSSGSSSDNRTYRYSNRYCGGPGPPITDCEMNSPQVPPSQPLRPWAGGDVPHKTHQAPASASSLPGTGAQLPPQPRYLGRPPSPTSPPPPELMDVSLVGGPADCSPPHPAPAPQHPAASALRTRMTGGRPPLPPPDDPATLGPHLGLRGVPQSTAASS
Readout name: pIC50
The quantity pIC50 is defined as the negative base-10 logarithm of the molar concentration.

Look at this compound and give its reported pIC50. Cc1ccc(C)c(NC2=N/C(=C\c3ccc4c(c3)OCO4)C(=O)N2)c1 7.04

# pIC50 lookup, item O=C1NC(Nc2ccccc2)=N/C1=C\c1ccc(O)c(O)c1 6.49

Field request: pIC50 | item: NC1=N/C(=C\c2ccc3c(c2)OCO3)C(=O)N1 6.72

What pIC50 value was documented for this compound, O=C1NC(Nc2ccccn2)=N/C1=C\c1ccc2c(c1)OCO2 ? 6.70

Could you share which pIC50 value was measured for CCSC1=N/C(=C\c2ccc3c(c2)OCO3)C(=O)N1C ? 6.01

Give the measured pIC50 of O=C1NC(Nc2cccc(F)c2)=N/C1=C\c1ccc2c(c1)OCO2 . 7.46

Give its pIC50 value. Item: O=C1NC(Nc2ccc(Oc3ccccc3)cc2)=N/C1=C\c1ccc2c(c1)OCO2 5.40

Which pIC50 value belongs to O=C1NC(Nc2ccc(F)cc2)=N/C1=C\c1ccc2c(c1)OCO2 ? 7.00

Request the reported pIC50 associated with O=C1NC(N2CCCCC2)=N/C1=C\c1ccc2c(c1)OCO2 6.36

Would you kindly share the measured pIC50 for CNC1=N/C(=C\c2ccc3c(c2)OCO3)C(=O)N1 ? 6.30

Would you kindly share the measured pIC50 for CN1C(=O)/C(=C/c2ccc3c(c2)OCO3)N=C1Nc1ccccc1 ? 5.49

State the recorded pIC50 for this entry: CSC1=N/C(=C\c2ccc3c(c2)OCO3)C(=O)N1 6.48

Give the measured pIC50 of COc1ccc(/C=C2\N=C(Nc3ccccc3)NC2=O)cc1O . 5.55

---

Target: Cannabinoid receptor 1 (Homo sapiens)
Experiment: Antagonist activity at CP-55940-activated CB1 receptor (unknown origin) at 10 uM by beta-arrestin assay relative to control
Format: functional
Design: scale not given: the % may be the effect or the level left
Would you kindly list Activity for each of these molecules?
Give the value; after it, write the unit.

Field request: Activity | item: CCSC1NC(=O)/C(=C/c2ccc3c(c2)OCO3)N1C (stereo unspecified) -10.7%

What value of Activity has been recorded for this entry: CCCNC1=N/C(=C\c2ccc3c(c2)OCO3)C(=O)N1C -15.8%

Give the measured Activity of CCSC1=N/C(=C\c2ccc3c(c2)OCO3)C(=O)N1 . -7.5%

Recorded Activity of CNC1=N/C(=C\c2ccc3c(c2)OCO3)C(=O)N1 , please. -14.7%

Which Activity value belongs to Cc1ccc(C)c(NC2=N/C(=C\c3ccc4c(c3)OCO4)C(=O)N2)c1 ? 10.8%

Need Activity of O=C1NC(N2CCN(c3ccc(F)cc3)CC2)=N/C1=C\c1ccc2c(c1)OCCO2 , thanks. 16%

What value of Activity has been recorded for this entry: O=C1NC(Nc2ccc(O)cc2)=N/C1=C\c1ccc2c(c1)OCO2 -25.5%

Activity for CCSC1=N/C(=C\c2ccc3c(c2)OCO3)C(=O)N1C ? -0.7%

So what's the measured Activity for this one? CN1CCN(c2ccc(NC3=N/C(=C\c4ccc5c(c4)OCO5)C(=O)N3)cc2)CC1 -14.5%

// returns reported Activity for input O=C1NC(N2CCCC2)=N/C1=C\c1ccc2c(c1)OCO2 -59.1%

Name the reported Activity value associated with the molecule CSC1=N/C(=C\c2ccc3c(c2)OCO3)C(=O)N1 -23%

---

Target: Dual specificity protein kinase CLK4 (Mus musculus)
Sequence (O35493 whole entry, the tested form may be a part): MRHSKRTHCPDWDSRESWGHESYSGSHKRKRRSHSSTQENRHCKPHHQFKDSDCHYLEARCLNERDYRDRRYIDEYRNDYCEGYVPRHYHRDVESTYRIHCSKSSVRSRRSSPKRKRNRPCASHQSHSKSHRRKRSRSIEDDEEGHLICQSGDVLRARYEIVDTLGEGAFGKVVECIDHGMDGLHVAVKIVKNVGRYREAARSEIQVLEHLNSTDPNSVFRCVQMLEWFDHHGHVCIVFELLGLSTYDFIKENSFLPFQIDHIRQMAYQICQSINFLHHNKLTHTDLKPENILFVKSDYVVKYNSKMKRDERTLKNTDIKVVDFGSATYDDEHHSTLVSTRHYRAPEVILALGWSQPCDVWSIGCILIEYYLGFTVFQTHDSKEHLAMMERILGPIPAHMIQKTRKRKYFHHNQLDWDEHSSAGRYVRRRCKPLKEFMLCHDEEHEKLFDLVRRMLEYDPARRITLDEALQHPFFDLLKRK
Test: Inhibition of GST-fused mouse recombinant CLK4 expressed in Escherichia coli using GRSRSRSRSRSR peptide as substrate incubated for 30 mins in presence of ATP by scintillation counting method
Readout name: log10 of IC50 (log10 of the value in nM)
Field: value | Transform: log10 | Quantity: IC50 | Unit: nM

Entry under review: O=C1NC(Nc2ccc(O)cc2)=N/C1=C\c1ccc2c(c1)OCO2 . Reported log10 of IC50? 1.26

Field request: log10 of IC50 | item: CSC1=N/C(=C\c2ccc3c(c2)OCO3)C(=O)N1 1.90

Query (compound): Cn1cc(Cc2ccc3c(c2)OCO3)nc1N ; field requested: log10 of IC50 3.48

What value of log10 of IC50 has been recorded for this entry: Cc1ccc(C)c(NC2=N/C(=C\c3ccc4c(c3)OCO4)C(=O)N2)c1 1.36

Dear colleague, I am looking for the recorded log10 of IC50 of the following compound: Cc1ccc(NC2=N/C(=C\c3ccc4c(c3)OCO4)C(=O)N2)cc1 1.75

What does the data say about its log10 of IC50? Entry: CCSC1=N/C(=C\c2ccc3c(c2)OCO3)C(=O)N1 1.36

Please look up its log10 of IC50: COc1cc(/C=C2\N=C(Nc3ccc(N4CCNCC4)cc3)NC2=O)ccc1O 3.08

Requested read-out: log10 of IC50. Entry: O=C1NC(N2CCOCC2)=N/C1=C\c1ccc2c(c1)OCO2 2.46

Recorded log10 of IC50 of CCCNC1=N/C(=C\c2ccc3c(c2)OCO3)C(=O)N1c1ccccc1 , please. 3.08

What does the record list as log10 of IC50 for O=C1N=C(Nc2ccccc2)S/C1=C\c1ccc2c(c1)OCO2 ? 3.08
